- testSummary: protein stability index of a GFP-peptide fusion (GPS, HEK-293T) (PSI 1-6); higher = more stable;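 note: 24-mer peptide tiles fused after GFP, lentivirally expressed, FACS-sorted into six equal bins by GFP/DsRed ratio, decoded by Illumina sequencing, PSI is the read-weighted mean bin number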
- conditionInfo: treatment: MLN4924 1 uM, 8 h; c terminus: a fixed tail appended
The sequences listed here are annotated with their protein stability index.
Form rule: numeric answer, no unit written next to it.

The cases that follow already have their protein stability index on record.
biopolymerSequence	experimentalResult
WWTNWVIPAISAVAVALMYRLYMA [CYB5A]	3.29
VNLLHIESRKSKRRNSEFEIFVDC [TPH1]	2.4
VQETNKQPPQTVNPIGHLPESLTK [ATF4]	4.86
QHEESTEGEADHSGYAGELGFRAF [UFD1]	4.88
GPYEGGGPVAGLDDSGGPTPSSYA [ZBTB22]	4.97
VTKMFQKIQDLIDDKDALVFVLID [TRIP13]	2.47

protein stability index for MTTSIRQFTSSSSIKGSSGLGGGS [KRT17] ?
3.39

protein stability index for LYLVGFLDLFGVSMVVPLLSLHVK [MFSD9] ?
3.19

protein stability index for HSTTPSGPGDEVARGIAGEKFDIV [ARFIP2] ?
4.64

protein stability index for GMLAPAAGPAFDSDPEISDVDEDE [PPFIA4] ?
5.54

protein stability index for ATPGEYSVNICGMNEHPVCSRTWT [SPAG8] ?
2.57

protein stability index for TVKHIDAALSEENTGKTYFFVANK [MMP1] ?
3.38

protein stability index for IEKTGGVEAVKNELRRQAPPPPPP [WASL] ?
4.46

protein stability index for TTKFTGSHKERFDPSGKGKGKAGR [TPPP] ?
4.93

protein stability index for GGIQEGAVTPAGVVNKYQINGLQA [DHCR7] ?
4.17

protein stability index for RITAAEALKHPWISHRSTVASCMH [CAMK2A] ?
2.89
